growth values, listed per item
system: A498 renal; experiment: NCI-60 one-dose screen, 48 h (100 = growth as untreated, 0 = no growth, -100 = all killed); conditions: 10 µM unless noted
The panel holds about 83,000 compounds, 20% with a hit somewhere; the sample as a whole holds those more often.
State the answer as a number, implicitly in %.

Lab note: need growth for CSc1nc(CC(C)C)c(C#N)c(=O)n1C on A498 renal, anyone have it? 47

Lab note: need growth for CCOC(=O)CSc1nc2sc3c(c2c(=O)n1-c1ccccc1)CCCCC3 on A498 renal, anyone have it? 105

Lab note: need growth for COC(=O)c1cc(-c2ccc(OC)c(OC)c2)[nH]c1N/N=C/c1c(Cl)cccc1Cl on A498 renal, anyone have it? 27.6

Here is the next item to consider.
Lab note: need growth for CCOC(=O)c1c2c(n3ccc(NC(=O)CCN4CCCC4)cc13)C(=O)c1ncccc1C2=O on A498 renal, anyone have it? 46.3
